These data points were gathered from the supplement of paper PMC6555819.

- Tested on: PXR homodimer (NR concentration 270 nM)
- protocol.details: PBM binding z-score (relative to random genomic background probes); higher = stronger binding; sequences stand for … in GC…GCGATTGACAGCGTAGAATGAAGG
measured.property: PBM binding z-score
// response body must contain only the number

// worked examples, PBM binding z-score included
{"columns": ["record.sequence", "PBM binding z-score"],
 "data": [
  ["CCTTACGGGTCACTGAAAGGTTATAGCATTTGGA", 0.223],
  ["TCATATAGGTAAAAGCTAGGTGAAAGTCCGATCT", 0.0441],
  ["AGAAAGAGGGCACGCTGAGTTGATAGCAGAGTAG", -0.108],
  ["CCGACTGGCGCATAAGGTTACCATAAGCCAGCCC", -0.103],
  ["TCTTGTAGATCAATAGAGGTTAAGACAGTGCGCT", 0.168]
]}

// lookup PBM binding z-score for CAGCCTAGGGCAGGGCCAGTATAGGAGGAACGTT
-0.815

And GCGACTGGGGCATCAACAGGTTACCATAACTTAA ?
-0.425

Moving on to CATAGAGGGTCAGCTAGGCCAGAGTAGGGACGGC
-0.122

Continue with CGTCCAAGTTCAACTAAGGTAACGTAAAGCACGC
2.78

// query: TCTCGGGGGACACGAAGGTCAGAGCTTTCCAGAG
1.24
